target: HA of A/Wyoming/03/03 (H3N2) virus (influenza A virus); experiment: cell-based or functional assay
MEASUREMENT_TYPE: Neutralization IC50, H3-Wy03 (µg/mL)
Report only the number, with the unit µg/mL understood.

Given the binder Antibody 6 (antibody, V domains shown) VH: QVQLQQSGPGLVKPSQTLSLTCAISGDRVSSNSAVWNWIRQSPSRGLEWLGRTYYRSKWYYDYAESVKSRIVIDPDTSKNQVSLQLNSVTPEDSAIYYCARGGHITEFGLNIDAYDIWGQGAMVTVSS VL: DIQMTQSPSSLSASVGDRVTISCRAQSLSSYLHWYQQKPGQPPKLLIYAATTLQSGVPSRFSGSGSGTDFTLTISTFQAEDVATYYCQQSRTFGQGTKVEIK , what is its reported Neutralization IC50, H3-Wy03?
4.7

Recorded values, source patent US20200109188A1.
